Exercise: for every item that follows, state its recorded inhibition at 2 µM.
- Test system: human hepatoma Huh-7 cell line harboring a HCV replicon
- Measurement Description: HCV replicon assay (inhibition of viral replication, luciferase readout)
- Assay type: cell-based
- Condition Context: Hepatitis C virus, 72 h, Huh-7 HCV replicon cells, 3 days incubation
- Protocol: The anti-HCV activity of the compounds of this invention was tested in a human hepatoma Huh-7 cell line harboring a HCV replicon. The assay comprised the following steps: Step 1: Compound Preparation and Serial Dilution. […] The percent cytotoxicity was determined by calcein AM conversion to fluorescent product. […] The percent anti-HCV replication activity was determined by the luminescence signal from the testing well compared to DMSO control wells. […]
Answer with the number, then the unit.

> print(dat)
                         compound.structure  reading
1  C[C@H]1CC[C@H](C(=O)N(c2cc(C#CC3(C(F)(F)F)CCC3)sc2C(=O)O)[C@H]2CC[C@H](Oc3ccc(O)nn3)CC2)CC1    99.9%

Batch lookup, inhibition at 2 µM per entry.
1. CC(C)(C)C#Cc1cc(N(C(=O)[C@H]2CC[C@H](C)CC2)[C@H]2CC[C@H](O[C@@H]3CCNC3)CC2)c(C(=O)O)s1
2. CC(C)(C)C#Cc1cc(N(C(=O)[C@H]2CC[C@H](C)CC2)[C@H]2CC[C@H](Oc3ccc(=O)[nH]n3)CC2)c(C(=O)O)s1

["99.9%", "100%"]

====

Field: inhibition at 2 µM. Provide a value for each of the compounds that follow.
- Test system: human hepatoma Huh-7 cell line harboring a HCV replicon
- Measurement Description: HCV replicon assay (inhibition of viral replication, luciferase readout)
- Type: cell-based
- Condition Context: Hepatitis C virus, 72 h, Huh-7 HCV replicon cells, 3 days incubation
One number for each entry, in %.

The following compounds have reported results that may help.
> print(dat)
                                   compound  reading
1  CC(C)(C)C#Cc1cc(N(C(=O)[C@H]2CC[C@H](C)CC2)[C@H]2CC[C@H](Oc3ccc(C#N)cn3)CC2)c(C(=O)O)s1     99.3
2  CC(C)(C)C#Cc1cc(N(C(=O)[C@H]2CC[C@H](C)CC2)[C@H]2C[C@H](Oc3cccnc3)C2)c(C(=O)O)s1     98.8

// each listed compound needs a value for inhibition at 2 µM
1. CC(C)(C)C#Cc1cc(N(C(=O)[C@H]2CC[C@H](C)CC2)[C@H]2CC[C@H](Sc3nc[nH]n3)CC2)c(C(=O)O)s1
2. CC1CCC(C(=O)N(c2cc(C#CC(C)(C)C)sc2C(=O)O)[C@H]2CC[C@H](Oc3cnccc3CN3CCCC3)CC2)CC1 (stereo partly shown)
3. CC(C)(C)C#Cc1cc(N(C(=O)[C@H]2CC[C@H](C)CC2)[C@H]2CC[C@H](Oc3cccnc3N3CCCC3)CC2)c(C(=O)O)s1
4. Cc1nsc(OC2CCC(N(c3cc(C#CC(C)(C)C)sc3C(=O)O)C(=O)[C@H]3CC[C@H](C)CC3)CC2)n1 (stereo partly shown)
5. CC(C)(C)C#Cc1cc(N(C(=O)[C@H]2CC[C@H](C)CC2)[C@H]2C[C@@H](Oc3ncccn3)C2)c(C(=O)O)s1
6. C[C@@H](CCOc1cc(CN(C)C)ccn1)N(c1cc(C#CC(C)(C)C)sc1C(=O)O)C(=O)[C@H]1CC[C@H](C)CC1
7. Cc1cccc(O[C@H]2CC[C@H](N(c3cc(C#CC(C)(C)C)sc3C(=O)O)C(=O)[C@H]3CC[C@H](C)CC3)CC2)n1
8. CC1=CC[C@H](C(=O)N(c2cc(C#CC(C)(C)C)sc2C(=O)O)[C@H]2CC[C@H](OC3CCOC3)CC2)CC1 (stereo partly shown)

1. 99.9
2. 100
3. 99
4. 99.7
5. 96.2
6. 99.9
7. 96.7
8. 99.9
